All figures here come from paper PMC5146860.

Molecular target: Cra (catabolite repressor/activator; FruR) (Escherichia coli)
Construct: 2IKS is effector-free regulatory domain used for docking
Test: isothermal titration calorimetry
Conditions: 25 °C; 50 mM FBP injected into 15 μM protein (Fig. 5 legend prints 15 mM); effector-binding site
value-kind: Kd (nM)
Only the number, expressed in nM, is required.

Value of Kd reported for the compound O=P(O)(O)OC[C@H]1OC(O)(COP(=O)(O)O)[C@@H](O)[C@@H]1O (stereo partly shown) [fructose-1,6-bisphosphate] is 1360

###

Target: Cra (catabolite repressor/activator; FruR) (Escherichia coli, UniProt P0ACP1, D101R/D148R/G274R)
Construct: 2IKS is effector-free regulatory domain used for docking
Experiment: isothermal titration calorimetry
Conditions: 25 °C; 50 mM FBP injected into 15 μM protein (Fig. 5 legend prints 15 mM); effector-binding site; mutant of strain Tang1683
value-kind: Kd

Value of Kd reported for the molecule O=P(O)(O)OC[C@H]1OC(O)(COP(=O)(O)O)[C@@H](O)[C@@H]1O (stereo partly shown) [fructose-1,6-bisphosphate] is 154 nM
